Values were extracted from the supplement of paper PMC10567573.

B1: CAMK2A (parent)
chain: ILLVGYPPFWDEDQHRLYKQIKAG

- Variants of: B1
- measurement-description: protein stability index of a GFP-peptide fusion (GPS, HEK-293T) (PSI 1-6); higher = more stable;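 further: lentivirally expressed fusions sorted by FACS into six bins by GFP to DsRed ratio, PSI derived from sequencing read proportions per bin multiplied by bin number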
- condition: c terminus: a fixed tail appended
Record 1 (yes) whenever protein stability index is at 2 or higher; record 0 (no) when lower.

>>> print(df.to_string())
               construct_sequence  category_label
0  ELLVGYPPFWDEDQHRLYKQIKAG [I1E]         1 (yes)
1  GLLVGYPPFWDEDQHRLYKQIKAG [I1G]         1 (yes)

Query: Reported protein stability index reaches at least 2 for ILLVGYPPFWDEDQHRLYKGIKAG [Q20G] ?
Response: 1 (yes)

Query: Okay, and RLLVGYPPFWDEDQHRLYKQIKAG [I1R] ?
Response: 1 (yes)

Query: Okay, and ILLVGYPPFWDEDQHELYKQIKAG [R16E] ?
Response: 1 (yes)

Query: Okay, and ILLVGYPPFWDEDQHRLYKEIKAG [Q20E] ?
Response: 1 (yes)

Query: Okay, and ILLVGYPPFWDEDQHRLYMQIKAG [K19M] ?
Response: 1 (yes)

Query: Okay, and ILLVAYPPFWDEDQHRLYKQIKAG [G5A] ?
Response: 1 (yes)

Query: Okay, and FLLVGYPPFWDEDQHRLYKQIKAG [I1F] ?
Response: 0 (no)

Query: Okay, and ILLVGPPPFWDEDQHRLYKQIKAG [Y6P] ?
Response: 1 (yes)

Query: Okay, and ILLVGYPPFWDEDQHRLYKQIKAP [G24P] ?
Response: 0 (no)

Query: Okay, and ILLVGYPPFWDEDQHRLYKQIKAS [G24S] ?
Response: 1 (yes)

Query: Okay, and ILLVGYPPFWDYDQHRLYKQIKAG [E12Y] ?
Response: 1 (yes)

Query: Okay, and IQLVGYPPFWDEDQHRLYKQIKAG [L2Q] ?
Response: 0 (no)

Query: Okay, and ILLVGYPPFWLEDQHRLYKQIKAG [D11L] ?
Response: 1 (yes)

Query: Okay, and ILLVGYPPFWDEDQHRLVKQIKAG [Y18V] ?
Response: 0 (no)

Query: Okay, and ILLVGYPPFWDEDQHRQYKQIKAG [L17Q] ?
Response: 1 (yes)

Query: Okay, and ILLVGYPPGWDEDQHRLYKQIKAG [F9G] ?
Response: 0 (no)

Query: Okay, and ILLVGYPPFWDEQQHRLYKQIKAG [D13Q] ?
Response: 1 (yes)
